Exercise: state measured normalized RNA/DNA level without ligand (log10) for each of the variants provided.
B1: library; a variant is named by its letters at N, in order (parent)
chain: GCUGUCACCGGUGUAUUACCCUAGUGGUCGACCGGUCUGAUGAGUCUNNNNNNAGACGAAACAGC

# Variants of: B1
# ASSAY EXPLANATION: normalized RNA/DNA level without ligand (relative to sTRSVctl = 100) (log10 (% of sTRSVctl)); ligand: hypoxanthine (xanthine aptamer); higher = less ribozyme self-cleavage, higher mRNA level
# CONDITION INFO: HEK293T, reporter: mCherry (pCS4076), ligand present: no
Keep it simple and answer with nothing but the number.

Give the measured normalized RNA/DNA level without ligand (log10) of `AUCAUG` . 1.63

Endpoint output: normalized RNA/DNA level without ligand (log10) of `GUCUGG` . Value? 1.48

Please give the measured normalized RNA/DNA level without ligand (log10) for this variant: `AGCGAU` 1.73

Which value of normalized RNA/DNA level without ligand (log10) has been reported for `AGAUUU` in the records? 1.89

# input variant: `UGGACU` ; wanted: its normalized RNA/DNA level without ligand (log10) 1.9

Given `GCGAGC` , state its recorded normalized RNA/DNA level without ligand (log10). 1.37

# get_value(readout='normalized RNA/DNA level without ligand (log10)', item= `GCAAGA` ) 1.71

Suppose we examine the variant `CCACAU` ; what normalized RNA/DNA level without ligand (log10) value has been reported? 1.79

I would be grateful if you could share the reported normalized RNA/DNA level without ligand (log10) for `UGUGAU` . 1.77

Value lookup for normalized RNA/DNA level without ligand (log10); key = `CAUUCG` 1.89

I am curious: what normalized RNA/DNA level without ligand (log10) value has been reported for `AUAUAG` ? 1.54

Given the entry `AGCUAC` , report its measured normalized RNA/DNA level without ligand (log10). 1.78

Fill in the blank: the reported normalized RNA/DNA level without ligand (log10) of `CUUCUU` is ____. 1.87

Return reported normalized RNA/DNA level without ligand (log10); argument: `AUCUGC` 1.88

Given the variant `GCGAAU` , what is its reported normalized RNA/DNA level without ligand (log10)? 1.42

Give the measured normalized RNA/DNA level without ligand (log10) of `CUUCGU` . 1.9

I have this variant here, `CCCAAU` , and I need its recorded normalized RNA/DNA level without ligand (log10). 1.83

Quick check: normalized RNA/DNA level without ligand (log10) of `UGGAAC` ? 1.78

Look up normalized RNA/DNA level without ligand (log10): `GUUGCU` 1.86

I have this variant here, `ACAAUA` , and I need its recorded normalized RNA/DNA level without ligand (log10). 1.81

Any idea what normalized RNA/DNA level without ligand (log10) was measured for `UCGCGU` ? 1.56

Query (variant): `CGGCCC` ; field requested: normalized RNA/DNA level without ligand (log10) 2.01

Quick check: normalized RNA/DNA level without ligand (log10) of `GAGAAG` ? 1.05

Value lookup for normalized RNA/DNA level without ligand (log10); key = `CUCGUA` 1.91

What value of normalized RNA/DNA level without ligand (log10) has been recorded for this entry: `GUCAUU` 1.92

Please look up its normalized RNA/DNA level without ligand (log10): `GUGAGU` 1.64

Suppose we examine the variant `UAUGAG` ; what normalized RNA/DNA level without ligand (log10) value has been reported? 1.54

Given the entry `ACCAUG` , report its measured normalized RNA/DNA level without ligand (log10). 1.57

So what's the measured normalized RNA/DNA level without ligand (log10) for this one? `CCAUUU` 1.86

GET /values?readout=normalized RNA/DNA level without ligand (log10)&item= `CUGUAU` 1.82

Quick check: normalized RNA/DNA level without ligand (log10) of `CGUCGA` ? 1.85

Fill in the blank: the reported normalized RNA/DNA level without ligand (log10) of `GAUCGU` is ____. 1.84

Query: normalized RNA/DNA level without ligand (log10); subject: `ACUCCG` 1.44

GET /values?readout=normalized RNA/DNA level without ligand (log10)&item= `UGAUAC` 1.85
